Reported Property: glass transition temperature (°C)

{"Molecule": "*CC(*)(C)C(=O)OC12CC3CC(C)(CC(C)(C3)C1)C2 (repeat unit)", "Reported Property": "glass transition temperature", "Uom": "°C", "Readout Value": 194.00}
{"Molecule": "*c1ccc(Oc2ccc(Oc3ccc(N4C(=O)c5ccc(Oc6c(C)cc(C(C)(C)c7cc(C)c(Oc8ccc9c(c8)C(=O)N(*)C9=O)c(C)c7)cc6C)cc5C4=O)cc3)c(C(C)(C)C)c2)cc1 (repeat unit)", "Reported Property": "glass transition temperature", "Uom": "°C", "Readout Value": 244.00}
{"Molecule": "*CC(*)C(=O)OCCCCCCOC(=O)c1ccc(OC(=O)c2ccc(C#N)cc2)cc1 (repeat unit)", "Reported Property": "glass transition temperature", "Uom": "°C", "Readout Value": 30.00}
{"Molecule": "*CCCCCCCCCCOC(=O)Nc1ccc(Cc2ccc(NC(=O)O*)cc2)cc1 (repeat unit)", "Reported Property": "glass transition temperature", "Uom": "°C", "Readout Value": 60.00}
{"Molecule": "*CC(*)(C)C(=O)OCC(C)(C)C (repeat unit) [Poly(neopentyl methacrylate) ]", "Reported Property": "glass transition temperature", "Uom": "°C", "Readout Value": 33}
{"Molecule": "*CC(OO*)c1ccc(Br)cc1 (repeat unit)", "Reported Property": "glass transition temperature", "Uom": "°C", "Readout Value": 9.60}
{"Molecule": "*C(=O)Nc1c(C)cc(Cc2cc(C)c(NC(=O)c3ccc4c(c3)C(=O)N(c3ccc(/N=N/c5ccc([N+](=O)[O-])cc5)c(N5C(=O)c6ccc(*)cc6C5=O)c3)C4=O)c(C)c2)cc1C (repeat unit)", "Reported Property": "glass transition temperature", "Uom": "°C", "Readout Value": 280.00}

###

{"Molecule": "*CC(*)c1ccc(C([Si](C)(C)C)[Si](C)(C)C)cc1 (repeat unit)", "glass transition temperature": "156.00 °C"}
{"Molecule": "*/C=C/c1cccc(/C=C/[Si](C)(C)c2cccc([Si](*)(C)C)c2)c1 (repeat unit)", "glass transition temperature": "28.70 °C"}
{"Molecule": "*c1ccc(C)c(N2C(=O)c3ccc(S(=O)(=O)c4ccc5c(c4)C(=O)N(*)C5=O)cc3C2=O)c1 (repeat unit)", "glass transition temperature": "348.00 °C"}
{"Molecule": "*CCOC(=O)Nc1ccc(C)c(NC(=O)OCCOc2cc([N+](=O)[O-])ccc2/N=N/c2cn(*)c3ccc(-c4ccc5c(c4)c4ccccc4n5CCCC)cc23)c1 (repeat unit)", "glass transition temperature": "160.00 °C"}
{"Molecule": "*c1ccc(-c2ccc(-c3cc(-c4ccccc4)c4cc5c(-c6ccccc6)cc(*)nc5cc4n3)cc2)cc1 (repeat unit)", "glass transition temperature": "392.00 °C"}
{"Molecule": "*CC(O)COc1ccc(C(C)(C)c2ccc(OCC(O)CN3CCN(*)CC3)cc2)cc1 (repeat unit)", "glass transition temperature": "100.00 °C"}
{"Molecule": "*C(=O)c1ccc2c(c1)/C(=N\\c1ccc(Oc3ccc(C(c4ccc(Oc5ccc(/N=C6/OC(=O)c7ccc(*)cc76)cc5)cc4)(C(F)(F)F)C(F)(F)F)cc3)cc1)OC2=O (repeat unit)", "glass transition temperature": "248.00 °C"}
